Reference source for all entries: the supplement of paper PMC11061612

- Test system: SNU-423 (Hepatocellular Carcinoma)
- experimentDescription: combination Emax (second highest fraction inhibited in the dose matrix, 72 h); higher = more inhibition; extreme values may be limits of the assay
metricName: combination Emax
Field format: numeric only.

Example compounds with recorded combination Emax:
Prompt line: Observed combination Emax on SNU-423 (Hepatocellular Carcinoma) for N#Cc1cnc(Nc2cc(NC[C@H]3CNCCO3)c(C(F)(F)F)cn2)cn1 [SRA737] + C=CCn1c(=O)c2cnc(Nc3ccc(N4CCN(C)CC4)cc3)nc2n1-c1cccc(C(C)(C)O)n1 [AZD1775] (first compound max 10 µM, partner max 1 µM) , please.
Response line: 0.648

Prompt line: I'm curious: which combination Emax was measured for CC1(C)CCC(CN2CCN(c3ccc(C(=O)NS(=O)(=O)c4ccc(NCC5CCOCC5)c([N+](=O)[O-])c4)c(Oc4cnc5[nH]ccc5c4)c3)CC2)=C(c2ccc(Cl)cc2)C1 [Venetoclax] + C1CN(CCC1(C(=O)N[C@@H](CCO)C2=CC=C(C=C2)Cl)N)C3=NC=NC4=C3C=CN4 [Capivasertib] (first compound max 1 µM, 7x7, partner max 3 µM) tested on SNU-423 (Hepatocellular Carcinoma)?
Response line: 0.393

Prompt line: Form: Entry = O=C(c1cc(Cc2n[nH]c(=O)c3ccccc23)ccc1F)N1CCN(C(=O)C2CC2)CC1 [Olaparib] + CC1(C)CCC(CN2CCN(c3ccc(C(=O)NS(=O)(=O)c4ccc(NCC5CCOCC5)c([N+](=O)[O-])c4)c(Oc4cnc5[nH]ccc5c4)c3)CC2)=C(c2ccc(Cl)cc2)C1 [Venetoclax] (first compound max 10 µM, 7x7, partner max 1 µM) | System = SNU-423 (Hepatocellular Carcinoma) | combination Emax = ____
Response line: 0.115

Prompt line: // map Cc1cc2ncnn2cc1Nc1ncc2c(n1)n(C1CCOCC1)c(=O)n2C [AZD7648] + CCN(CCO)CCCOc1ccc2c(Nc3cc(CC(=O)Nc4cccc(F)c4)[nH]n3)ncnc2c1 [AZD2811] (first compound max 10 µM, 7x7, partner max 1 µM) to recorded combination Emax (system: SNU-423 (Hepatocellular Carcinoma))
Response line: 0.341

Prompt line: What reported combination Emax corresponds to Cc1cc2ncnn2cc1Nc1ncc2c(n1)n(C1CCOCC1)c(=O)n2C [AZD7648] + O=C(c1cc(Cc2n[nH]c(=O)c3ccccc23)ccc1F)N1CCN(C(=O)C2CC2)CC1 [Olaparib] (first compound max 10 µM, 7x7, partner max 10 µM) on SNU-423 (Hepatocellular Carcinoma)?
Response line: 0.275

Prompt line: // fetch SNU-423 (Hepatocellular Carcinoma) combination Emax for C[C@@H](Nc1cc(F)cc(F)c1)c1cc(C(=O)N(C)C)cc2c(=O)cc(N3CCOCC3)oc12 [AZD8186] + CC(=O)c1c(C)c2cnc(Nc3ccc(N4CCNCC4)cn3)nc2n(C2CCCC2)c1=O [Palbociclib] (first compound max 10 µM, 7x7, partner max 10 µM)
Response line: 0.454

More entries:
Prompt line: Provide value of combination Emax for this record tested with SNU-423 (Hepatocellular Carcinoma): C=CCn1c(=O)c2cnc(Nc3ccc(N4CCN(C)CC4)cc3)nc2n1-c1cccc(C(C)(C)O)n1 [AZD1775] + C[C@@H]1COCCN1C2=NC(=NC(=C2)C3(CC3)[S@](=N)(=O)C)C4=C5C=CNC5=NC=C4 [AZD6738] (first compound max 1 µM, partner max 10 µM)
Response line: 0.747

Prompt line: Give the reported combination Emax for CN(CCO)CC[C@H](CSc1ccccc1)Nc1ccc(S(=O)(=O)NC(=O)c2ccc(N3CCC([C@@H](O)c4ccccc4-c4ccc(Cl)cc4)CC3)cc2)cc1S(=O)(=O)C(F)(F)F [AZD4320] + CCN(CCO)CCCOc1ccc2c(Nc3cc(CC(=O)Nc4cccc(F)c4)[nH]n3)ncnc2c1 [AZD2811] (first compound max 1 µM, 7x7, partner max 1 µM) (system: SNU-423 (Hepatocellular Carcinoma)).
Response line: 0.466

Prompt line: SNU-423 (Hepatocellular Carcinoma) / combination Emax / COc1cccc(OCCCN)c1-c1cc(Nc2cnc(C#N)cn2)n[nH]1 [Prexasertib] + O=C(c1cc(Cc2n[nH]c(=O)c3ccccc23)ccc1F)N1CCN(C(=O)C2CC2)CC1 [Olaparib] (first compound max 1 µM, 7x7, partner max 10 µM) : value?
Response line: 0.77

Prompt line: Can you look up combination Emax on SNU-423 (Hepatocellular Carcinoma) for CN(CCO)CC[C@H](CSc1ccccc1)Nc1ccc(S(=O)(=O)NC(=O)c2ccc(N3CCC([C@@H](O)c4ccccc4-c4ccc(Cl)cc4)CC3)cc2)cc1S(=O)(=O)C(F)(F)F [AZD4320] + Cn1cnc2c(F)c(Nc3ccc(Br)cc3Cl)c(C(=O)NOCCO)cc21 [Selumetinib] (first compound max 1 µM, 7x7, partner max 3 µM) ?
Response line: 0.414

Prompt line: What value of combination Emax on SNU-423 (Hepatocellular Carcinoma) does CN(CCO)CC[C@H](CSc1ccccc1)Nc1ccc(S(=O)(=O)NC(=O)c2ccc(N3CCC([C@@H](O)c4ccccc4-c4ccc(Cl)cc4)CC3)cc2)cc1S(=O)(=O)C(F)(F)F [AZD4320] + C=CCn1c(=O)c2cnc(Nc3ccc(N4CCN(C)CC4)cc3)nc2n1-c1cccc(C(C)(C)O)n1 [AZD1775] (first compound max 1 µM, partner max 1 µM) have?
Response line: 0.804

Prompt line: # get_value(readout= combination Emax, system= SNU-423 (Hepatocellular Carcinoma)) for C[C@@H](c1ccc2nccn2c1)n1nnc2ncc(-c3cnn(C)c3)nc21 [Savolitinib] + Cc1c2c(nn1C)CSCc1cc(n(C)n1)CSc1cc(c3ccccc3c1)OCCCc1c(C(=O)O)n(C)c3c-2c(Cl)ccc13 [AZD5991] (first compound max 1 µM, 7x7, partner max 1 µM)
Response line: 0.2

Prompt line: Quick check: combination Emax on SNU-423 (Hepatocellular Carcinoma), item CS(=O)(=O)CCNCc1ccc(-c2ccc3ncnc(Nc4ccc(OCc5cccc(F)c5)c(Cl)c4)c3c2)o1 [Lapatinib] + C[C@@H](Oc1cc(-c2cnn(C3CCNCC3)c2)cnc1N)c1c(Cl)ccc(F)c1Cl [Crizotinib] (first compound max 10 µM, 7x7, partner max 10 µM) ?
Response line: 0.952

###

- Test system: PA-TU-8988T (Pancreatic Carcinoma);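 further: after 72 h of two-drug dosing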
- experimentDescription: Bliss excess, mean over the matrix (fraction); higher = more synergy
The molecules listed here are annotated with their Bliss excess.
Quick one: just the number, no unit, thanks!

Some solved cases for reference:
Prompt line: For the molecule shown here, CC1(C)CCC(CN2CCN(c3ccc(C(=O)NS(=O)(=O)c4ccc(NCC5CCOCC5)c([N+](=O)[O-])c4)c(Oc4cnc5[nH]ccc5c4)c3)CC2)=C(c2ccc(Cl)cc2)C1 [Venetoclax] + C1CN(CCC1(C(=O)N[C@@H](CCO)C2=CC=C(C=C2)Cl)N)C3=NC=NC4=C3C=CN4 [Capivasertib] (first compound max 1 µM, 7x7, partner max 3 µM) , give the reported Bliss excess.
Response line: 0.0237

Prompt line: Which Bliss excess is listed for Cc1c2c(nn1C)CSCc1cc(n(C)n1)CSc1cc(c3ccccc3c1)OCCCc1c(C(=O)O)n(C)c3c-2c(Cl)ccc13 [AZD5991] + Cn1cnc2c(F)c(Nc3ccc(Br)cc3Cl)c(C(=O)NOCCO)cc21 [Selumetinib] (first compound max 1 µM, 7x7, partner max 3 µM) ?
Response line: 0.0457

Prompt line: Dear colleague, I am looking for the recorded Bliss excess of the following molecule: Cc1cc2ncnn2cc1Nc1ncc2c(n1)n(C1CCOCC1)c(=O)n2C [AZD7648] + O=C(c1cc(Cc2n[nH]c(=O)c3ccccc23)ccc1F)N1CCN(C(=O)C2CC2)CC1 [Olaparib] (first compound max 10 µM, 7x7, partner max 10 µM)
Response line: -0.0047

Turning now to a further molecule:
Prompt line: Entry Cc1cc2ncnn2cc1Nc1ncc2c(n1)n(C1CCOCC1)c(=O)n2C [AZD7648] + C[C@@H]1COCCN1C2=NC(=NC(=C2)C3(CC3)[S@](=N)(=O)C)C4=C5C=CNC5=NC=C4 [AZD6738] (first compound max 10 µM, 7x7, partner max 10 µM) : reported Bliss excess = ?
Response line: 0.003

###

- Test system: IA-LM (Non-Small Cell Lung Carcinoma)
- experimentDescription: combination Emax (second highest fraction inhibited in the dose matrix, 72 h); higher = more inhibition; extreme values may be limits of the assay
metricName: combination Emax
Answer with a number only.

Prompt line: Tell me the measured combination Emax of C[C@@H](Nc1cc(F)cc(F)c1)c1cc(C(=O)N(C)C)cc2c(=O)cc(N3CCOCC3)oc12 [AZD8186] + CC(=O)c1c(C)c2cnc(Nc3ccc(N4CCNCC4)cn3)nc2n(C2CCCC2)c1=O [Palbociclib] (first compound max 10 µM, 7x7, partner max 10 µM) , please.
Response line: 0.311

Kindly consider the entry below.
Prompt line: Consider the compound shown here: C[C@@H]1COCCN1c1cc(C2([S@](C)(=N)=O)CC2)nc(-c2ccnc3[nH]ccc23)n1 [AZD6738] + Nc1ccn([C@@H]2O[C@H](CO)[C@@H](O)C2(F)F)c(=O)n1 [Gemcitabine] (first compound max 10 µM, 7x7, partner max 0.3 µM) What is its recorded combination Emax?
Response line: 0.462
